Property: responders at 90 mg/kg; scope: individual molecules
Test system: Mice
Experiment: animal or person
Format: in vivo
Settings: Mus musculus, po, read-out: MES test Protection %
# value in %; strip the unit string

# example entries with known answers
- compoundStructureString: "CC[C@@H](OC(N)=O)[C@H](OC)c1ccc(Cl)cc1Cl"
  responders at 90 mg/kg, %: 33.3
- compoundStructureString: "CO[C@@H](c1ccccc1Cl)[C@@H](C)OC(N)=O"
  responders at 90 mg/kg, %: 100
- compoundStructureString: "CO[C@@H](c1cccc(Cl)c1Cl)[C@H](C)OC(N)=O"
  responders at 90 mg/kg, %: 100

Reported responders at 90 mg/kg, molecule C[C@H](OC(N)=O)[C@H](OC(N)=O)c1ccccc1Cl : ____
100

Further, for CCCC[C@H](OC(N)=O)[C@@H](OC)c1ccccc1I ?
33.3
